Please provide measured melting point for the entries that follow.

Prompt line: // query melting point value for entry Cc1cn([C@@H]2C[C@H](C(=O)Oc3c(F)c(F)c(F)c(F)c3F)N(C(=O)CNC(=O)OCC3c4ccccc4-c4ccccc43)C2)c(=O)[nH]c1=O
Response line: 122 to 126 °C

Prompt line: # get_value(readout='melting point', item= Cc1cn([C@H]2C[C@@H](C(=O)Oc3c(F)c(F)c(F)c(F)c3F)N(C(=O)CNC(=O)OCC3c4ccccc4-c4ccccc43)C2)c(=O)[nH]c1=O )
Response line: 124 to 126 °C

Prompt line: Sample Cc1cn([C@H]2C[C@H](C(=O)Oc3c(F)c(F)c(F)c(F)c3F)N(C(=O)CNC(=O)OCC3c4ccccc4-c4ccccc43)C2)c(=O)[nH]c1=O — what was its melting point?
Response line: 115 to 124 °C

Prompt line: Dear colleague, I am looking for the recorded melting point of the following molecule: Cc1cn([C@H]2C[C@H](C(=O)O)N(C(=O)CNC(=O)OCC3c4ccccc4-c4ccccc43)C2)c(=O)[nH]c1=O
Response line: > 200 °C

Prompt line: // melting point lookup, key: Cc1cn([C@@H]2C[C@H](C(=O)O)N(C(=O)CNC(=O)OCC3c4ccccc4-c4ccccc43)C2)c(=O)[nH]c1=O
Response line: > 200 °C

Prompt line: Reported melting point, molecule O=C(NCC(=O)N1C[C@H](n2cnc3c(NC(=O)c4ccccc4)ncnc32)C[C@@H]1C(=O)Oc1c(F)c(F)c(F)c(F)c1F)OCC1c2ccccc2-c2ccccc21 : ____
Response line: 125 to 130 °C

For every listed record, write down its melting point.
1. CC(C)C(=O)Nc1nc2c(ncn2[C@@H]2C[C@H](C(=O)Oc3c(F)c(F)c(F)c(F)c3F)N(C(=O)CNC(=O)OCC3c4ccccc4-c4ccccc43)C2)c(=O)[nH]1
2. Cc1cn([C@H]2C[C@@H](C(=O)O)N(C(=O)CNC(=O)OCC3c4ccccc4-c4ccccc43)C2)c(=O)[nH]c1=O
3. O=C(NCC(=O)N1C[C@H](n2ccc(NC(=O)c3ccccc3)nc2=O)C[C@@H]1C(=O)Oc1c(F)c(F)c(F)c(F)c1F)OCC1c2ccccc2-c2ccccc21

Response line:
["146 to 150 °C", "> 200 °C", "133 to 137 °C"]
